- target-or-system: T1, apical domain of human CD71 (human, UniProt P02786 189-383, limits assumed)
- T1 construct: domain: apical domain; the panning antigen was 30% biotinylated; also called human apical domain of CD71
- T1 sequence (P02786 189-383 limits assumed): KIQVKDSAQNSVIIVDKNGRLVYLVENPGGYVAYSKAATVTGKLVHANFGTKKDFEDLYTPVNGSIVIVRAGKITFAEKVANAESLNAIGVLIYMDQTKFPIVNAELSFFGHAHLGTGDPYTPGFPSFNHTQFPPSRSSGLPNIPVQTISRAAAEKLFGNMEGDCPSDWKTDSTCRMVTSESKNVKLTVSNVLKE
- test-summary: primary ELISA of colonies, luminescence

| binder | Apical domain, RLU, RLU |
| --- | --- |
| CD71-binding FN3 domain of SEQ ID NO: 113 (designed binder, Screen 1 hit, tested from colonies in the primary ELISA; not shown: C-terminal poly-histidine tag added to each FN3 domain) MLPAPKNLVVSRVTEDSARLSWTAPDAAFDSFFIGYLEPQPPGEAIYLLVPGSERSYDLTGLKPGTEYNVTIQGVKGGFPSDPLSAIFTT | 5.94e+06 |
| CD71-binding FN3 domain of SEQ ID NO: 104 (designed binder, Screen 1 hit, tested from colonies in the primary ELISA; not shown: C-terminal poly-histidine tag added to each FN3 domain) MLPAPKNLVVSRVTEDSARLSWTAPDAAFDSFFIGYLEPQPPGEAIHLIVPGSERSYDLTGQKPGTEYNVTIQGVKGGFPSDPLVASFTT | 4.43e+06 |
